METHOD SUMMARY: Antiproliferative activity against human HPDE cells assessed as inhibition of cell growth measured after 48 hrs by MTT assay
Type: toxicity, cell-based

[
  {
    "ENTRY SMILES": "C=C1CC[C@@H]2[C@]3(C)COC(C)(C)O[C@@H]3CC[C@@]2(C)[C@@H]1C/C=C1/C(=O)OC[C@H]1OC(=O)Nc1ccccc1",
    "IC50 at 48 h": "> 30 µM"
  }
]

----------
METHOD SUMMARY: Antiproliferative activity against human IMR-90 cells assessed as inhibition of cell growth measured after 48 hrs by MTT assay
Assay type: toxicity, cell-based

[
  {
    "ENTRY SMILES": "C=C1CC[C@@H]2[C@]3(C)COC(C)(C)O[C@@H]3CC[C@@]2(C)[C@@H]1C/C=C1/C(=O)OC[C@H]1OC(=O)Nc1ccccc1",
    "IC50 at 48 h": "> 30 µM"
  }
]
